Measured values drawn from patent US20180072666A1 for this set.

Listing of recorded log10 IC50 by entry.
- System under test: Acinetobacter baumannii FabI (AbFabI) (Acinetobacter baumannii, UniProt A0ABX6CD96)
- Assay explanation: biochemical
- Assay type: biochemical
- Condition label: read-out: Enzyme inhibition or IC50 with AbFabl
Readout type: log10 IC50 (log10 of the value in µM)

{"Compound": "O=C(Cc1c(F)cccc1F)N1CCC(c2ccccc2)C1 (stereo not shown)", "log10 IC50": 0.84}
{"Compound": "COc1ccccc1C1CCN(C(=O)Cc2c(F)cccc2F)C1 (stereo not shown)", "log10 IC50": 0.20}
{"Compound": "O=C(Cc1ccccc1Cl)N1CCC(c2nccs2)C1 (stereo not shown)", "log10 IC50": 1.15}
{"Compound": "O=C(Cc1cccc(F)c1F)N1CCC(c2ccccc2)C1 (stereo not shown)", "log10 IC50": 0.97}
{"Compound": "O=C(Cc1ccccc1F)N1CCC(c2ccccc2)C1 (stereo not shown)", "log10 IC50": 0.40}
{"Compound": "COc1ccccc1C1CCN(C(=O)Cc2cccc(F)c2F)C1 (stereo not shown)", "log10 IC50": 0.87}
{"Compound": "COc1ccccc1C1CCN(C(=O)Cc2ccccc2F)C1 (stereo not shown)", "log10 IC50": 0.28}
{"Compound": "CC(=O)Nc1ccc(/C=C/C(=O)N2CCC(c3ccccn3)C2)cn1 (stereo not shown)", "log10 IC50": 0.70}
{"Compound": "O=C(Cc1ccccc1Cl)N1CCC(c2ccc3c(c2)OCO3)C1 (stereo not shown)", "log10 IC50": 0.57}
{"Compound": "COc1ccccc1C1CCN(C(=O)Cc2ccccc2Cl)C1 (stereo not shown)", "log10 IC50": -0.06}
